Just for reference, patent US20230348376A1 is where these values come from.

# experimental_target: human VDR (Homo sapiens)
# Sequence (P11473 whole entry): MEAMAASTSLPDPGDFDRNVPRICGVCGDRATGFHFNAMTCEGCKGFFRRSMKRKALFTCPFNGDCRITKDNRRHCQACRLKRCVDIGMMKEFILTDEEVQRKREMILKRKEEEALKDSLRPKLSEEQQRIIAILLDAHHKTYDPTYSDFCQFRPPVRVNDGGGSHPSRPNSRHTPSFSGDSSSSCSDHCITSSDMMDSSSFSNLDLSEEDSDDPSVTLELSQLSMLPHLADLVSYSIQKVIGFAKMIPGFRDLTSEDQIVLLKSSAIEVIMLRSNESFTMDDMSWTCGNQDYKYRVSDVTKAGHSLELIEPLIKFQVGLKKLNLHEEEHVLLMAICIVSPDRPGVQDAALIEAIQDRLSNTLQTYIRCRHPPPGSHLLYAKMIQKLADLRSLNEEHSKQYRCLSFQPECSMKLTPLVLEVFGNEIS
# Sequence (P19793 whole entry partner): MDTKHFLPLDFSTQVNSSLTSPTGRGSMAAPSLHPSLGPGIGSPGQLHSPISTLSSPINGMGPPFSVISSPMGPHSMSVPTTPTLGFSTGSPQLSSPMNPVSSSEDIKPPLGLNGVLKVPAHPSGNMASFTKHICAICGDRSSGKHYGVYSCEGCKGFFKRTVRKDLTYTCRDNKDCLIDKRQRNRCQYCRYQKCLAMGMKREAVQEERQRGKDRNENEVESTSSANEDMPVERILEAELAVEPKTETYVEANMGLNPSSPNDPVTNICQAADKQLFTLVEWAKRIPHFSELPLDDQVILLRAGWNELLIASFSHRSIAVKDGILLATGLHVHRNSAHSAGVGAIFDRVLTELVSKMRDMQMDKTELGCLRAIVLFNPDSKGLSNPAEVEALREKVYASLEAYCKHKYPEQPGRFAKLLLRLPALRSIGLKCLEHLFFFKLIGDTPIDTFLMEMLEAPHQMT
# assay_protocol: Evaluation of VDR transcription activity in human osteoblasts (HOS cells), luciferase reporter
# condition_info: Activity (EC50, VDR transcription activity), HOS cells transfected with human VDR, human RXRα and DR3 luciferase reporter; 21 hours
metric: EC50

For orientation, consider the following solved cases.
C[C@H](CN1CCCC(O)(C(F)F)C1)[C@H]1CC[C@H]2/C(=C/C=C3C[C@@H](O)C[C@H](O)C3)CCC[C@]12C (single isomer, unassigned) [Compound C035a]; < 1 nM
C=C1/C(=C\C=C2/CCC[C@]3(C)[C@@H]([C@H](C)CN4CC(O)(C(F)(F)F)C4)CC[C@@H]23)C[C@@H](O)C[C@@H]1O; 1 to 10 nM

Note to self: EC50 of C=C1C(O)CC(=C/C=C2\CCC[C@]3(C)[C@@H]([C@H](C)CCN4CCOC5(CC5)C4)CC[C@@H]23)C[C@H]1O (stereo in doubt) with human VDR (Homo sapiens) was 1 to 10 nM

Summary: C=C1/C(=C\C=C2/CCC[C@]3(C)[C@@H]([C@H](C)CN4CCC(O)(C(F)(F)F)CC4)CC[C@@H]23)C[C@@H](O)[C@H](C)[C@@H]1O , human VDR (Homo sapiens), EC50 = 10 to 100 nM

Assay human VDR (Homo sapiens), sample C=C1/C(=C\C=C2/CCC[C@]3(C)[C@@H]([C@H](C)CN4CCO[C@H](C(F)F)C4)CC[C@@H]23)C[C@@H](O)C[C@@H]1O , EC50 read: 10 to 100 nM

// assay human VDR (Homo sapiens), entry C=C1[C@H](O)CC(=C/C=C2\CCC[C@]3(C)[C@@H]([C@H](C)CN4CCC[C@H](C(F)F)C4)CC[C@@H]23)C[C@H]1O , EC50 value = 1 to 10 nM

Param item: C=C1[C@H](O)CC(=C/C=C2\CCC[C@]3(C)[C@@H]([C@H](C)CN4CCCC(C)(OC)C4)CC[C@@H]23)C[C@H]1O (single isomer, unassigned) [Compound C047a] ; param system: human VDR (Homo sapiens); output EC50: 1 to 10 nM

Hey, human VDR (Homo sapiens) data for C[C@H](CN1CC[C@H](F)C1)[C@H]1CC[C@H]2/C(=C/C=C3C[C@@H](O)C[C@H](O)C3)CCC[C@]12C : EC50 came out at 100 to 1000 nM

human VDR (Homo sapiens) data for C=C1/C(=C\C=C2/CCC[C@]3(C)[C@@H]([C@H](C)CN4CCC[C@H](C(F)F)C4)CC[C@@H]23)C[C@@H](O)[C@H](C)[C@@H]1O ; its EC50: 1 to 10 nM

Query C=C1[C@H](O)CC(=C/C=C2\CCC[C@]3(C)[C@@H]([C@H](C)CCN4CC(OC(F)F)C4)CC[C@@H]23)C[C@H]1O on human VDR (Homo sapiens); EC50 returned: 10 to 100 nM

Record C[C@H](CN1CC[C@H](OC(F)F)C1)[C@H]1CC[C@H]2/C(=C/C=C3C[C@@H](O)C[C@H](O)C3)CCC[C@]12C / human VDR (Homo sapiens), EC50 recorded as 10 to 100 nM

Form field EC50 for item C=C1[C@H](O)CC(=C/C=C2\CCC[C@]3(C)[C@@H]([C@H](C)CN4CC(C(C)(F)F)C4)CC[C@@H]23)C[C@H]1O on human VDR (Homo sapiens): 10 to 100 nM
